Tested on: SN12C
Experiment: NCI tumour cell line growth inhibition, 48 h
Calls of active or inactive are those of the source. Rule as the data show it: active = GI50 up to about 1.1 µM and inactive = higher.
Catalogue of GI50 values

Worked cases, answers included:
compound="Clc1ccc(C2=Nc3ccccc3SC(c3cccs3)C2)cc1 (stereo unspecified)" val="15.6 µM (inactive)"
compound="NCCO/C=C/C(N)C(=O)O (stereo unspecified) [AMINOETHOXYVINYLGLYCINE]" val="> 100 µM (inactive)"
compound=CO[C@]12C#CC=CC#C[C@@H](O)[C@]3(CCC1)O[C@@]23c1cccc(O)c1 val="> 100 µM (inactive)"

*Q* Query: GI50; subject: `Sc1nnc(CCCCCCCCc2nnc(S)o2)o1`
*A* > 100 µM (inactive)

*Q* Query: GI50; subject: COC1(OC)CC2C=C(S(=O)(=O)c3ccccc3)C1N(Cc1ccccc1)C2=O (stereo unspecified)
*A* 23 µM (inactive)

*Q* Query: GI50; subject: `O=C1c2ccccc2S(=O)(=O)c2c1cccc2[N+](=O)[O-]`
*A* 2.2 µM (inactive)

*Q* Query: GI50; subject: `O=C1CCC(=O)N1CNc1ccc2c(c1)Sc1ccccc1O2`
*A* 27.6 µM (inactive)

*Q* Query: GI50; subject: CC1CCP(=O)(c2ccccc2)c2ccccc21 (stereo unspecified)
*A* 26.2 µM (inactive)

*Q* Query: GI50; subject: O=C1CCCCCCCCCCC1CCCCCBr (stereo unspecified)
*A* 22.3 µM (inactive)

*Q* Query: GI50; subject: CC1(C)C2C=C(CCN3CCOCC3)CC1C2 (stereo unspecified)
*A* > 100 µM (inactive)

*Q* Query: GI50; subject: C[C@]12CC[C@H](OC(=O)Nc3ccccc3)CC1=CC[C@@H]1C2CC[C@]2(C)/C(=N/OC(=O)Nc3ccccc3)CCC12 (stereo partly specified)
*A* 1.79 µM (inactive)

----------
System: DMS-273
Test: NCI tumour cell line growth inhibition, 48 h
Calls of active or inactive are those of the source. No stated cut-off is given here; in the data, active = GI50 up to about 1.1 µM and inactive = higher.
MEASURED_PROPERTY: GI50

Worked cases, answers included:
compound="COCCCNC(=O)C1C(=O)C(=O)N(CCCOC)C1=O (stereo not drawn)" target_desc=DMS-273 measured_property=GI50 val="> 100 µM (inactive)"
compound="CC1=C(O)C(=O)C2C(=O)C1C(C)C2c1ccc(C)cc1 (stereo not drawn)" target_desc=DMS-273 measured_property=GI50 val="> 100 µM (inactive)"
compound=COc1cc(/C=N\c2ccc(C(C)C)cc2)cc(OC)c1OC target_desc=DMS-273 measured_property=GI50 val="> 72.4 µM (inactive)"
compound="CC(O)C(NC(=O)C(CS)NC(=O)C(CO)NC(=O)C(CCCCN)NC(=O)C(Cc1c[nH]c2ccccc12)NC(=O)C(Cc1ccc(O)cc1)NC(=O)C(CS)NC(=O)C(N)Cc1ccccc1)C(N)=O (stereo not drawn)" target_desc=DMS-273 measured_property=GI50 val="20.9 µM (inactive)"
compound=CNC(=O)CN(CC(=O)NC)C(=O)NC target_desc=DMS-273 measured_property=GI50 val="> 100 µM (inactive)"

*Q* Query: GI50; subject: Cc1cc2c(cc1Br)C1(C)CCC(C)C1(C)O2 (stereo not drawn)
*A* 19.6 µM (inactive)

*Q* Query: GI50; subject: `Cc1c(C(=O)Nc2ccc(Cl)c(C(F)(F)F)c2)oc2cc(O)ccc2/c1=N\NC(N)=S`
*A* > 100 µM (inactive)

*Q* Query: GI50; subject: CCc1cccc(C(C)C)c1NC(=O)CC1Sc2ccccc2NC1=O (stereo not drawn)
*A* 34 µM (inactive)
